system: A549-ACTB-RAB5A; test: phenotypically active (imaging signature differs from DMSO and reproducible) at any of 0.3-9 uM (binary (1 = active, 0 = inactive)); higher = active; conditions: treatment time: 24 h
measurement.kind: phenotypically active
Give your answer as a number; write no unit.

Study these solved cases before continuing.
>  <compound>
Cc1c(OCC(F)(F)F)ccnc1CS(=O)c1nc2ccccc2[nH]1 (centres undefined) [lansoprazole]

>  <phenotypically active>
0

$$$$
>  <compound>
Cc1cc2c(F)c(Oc3ncnn4cc(OC[C@@H](C)O)c(C)c34)ccc2[nH]1 [brivanib]

>  <phenotypically active>
1

$$$$
>  <compound>
Nc1ncnc2c1c(COc1cccc(Cl)c1)nn2C1CCOCC1

>  <phenotypically active>
0

$$$$
>  <compound>
CCCCC1=NC2(CCCC2)C(=O)N1Cc1ccc(-c2ccccc2-c2nnn[nH]2)cc1 [irbesartan]

>  <phenotypically active>
0

$$$$
>  <compound>
CN([C@H]1c2cc(OCCCC(F)(F)F)ccc2OC(C)(C)[C@@H]1O)S(C)(=O)=O

>  <phenotypically active>
0

$$$$
>  <compound>
c1ccc(-c2n[nH]cc2-c2ccnc3ccccc23)nc1

>  <phenotypically active>
0

$$$$
>  <compound>
CN1C(=O)OC(C)(C)C1=O [trimethadione]

>  <phenotypically active>
0

$$$$
>  <compound>
Cc1ccc(NC(=O)c2ccc(CN3CCN(C)CC3)cc2)cc1Nc1nc(-c2cccnc2)cs1 [masitinib]

>  <phenotypically active>
1

$$$$

Q) Need phenotypically active of O=C(NCCN1CCC(n2c(=O)[nH]c3ccccc32)CC1)c1cc2cc(F)ccc2[nH]1 , thanks.
A) 1

Sourced from the supplement of paper PMC7411054
